# Tested on: rodent lifetime carcinogenesis bioassay, tumor incidence TD50
# test: carcinogenic potency in animals, long-term in vivo studies, CPDB compilation (AID 1745844)
# assay setup: rat; strain Donryu; females; in drinking water; site: esophagus; lesion: papilloma; dosed 52 weeks; study length 60 weeks
measurement name: TD50

Problem: Tell us which TD50 value is on record for CCCCCN(N=O)C(=O)OCC
Solution: 1.46 mg/kg/day

* * *

# Tested on: rodent lifetime carcinogenesis bioassay, tumor incidence TD50
# test: carcinogenic potency in animals, long-term in vivo studies, CPDB compilation (AID 1745844)
# assay setup: mouse; strain B6C3F1; females; in feed; site: any site (literature study); lesion: several types; types named in the paper; dosed 78 weeks; study length 104 weeks
Activity calls are given as the source filed them. How the calls were made is not given here.
Below is a list of entries, each paired with its recorded TD50 value.

For orientation, consider the following solved cases.
NC(=O)c1cnccn1; 3430 mg/kg/day
CCc1nc(N)nc(N)c1-c1ccc(Cl)cc1; 315 mg/kg/day (inactive)
CCC(Br)(CC)C(=O)NC(N)=O; 5320 mg/kg/day

Consider the additional molecule presented here.
Problem: Tell us which TD50 value is on record for CCc1cc(C(N)=S)ccn1
Solution: 450 mg/kg/day (inactive)

Just for reference, PubChem BioAssay AID1745844 is where these values come from.
